FYI, the data here is from patent US20250250357A1.

biological target: T1, human MSLN-R3-his protein (human, UniProt Q13421 487-598); experiment: ELISA on coated antigen, antibody 200 nM
T1 construct: it is put last here; also called human MSLN-R3 protein; hMSLN-R3-his; not shown: His tag
T1 sequence (Q13421 495-606): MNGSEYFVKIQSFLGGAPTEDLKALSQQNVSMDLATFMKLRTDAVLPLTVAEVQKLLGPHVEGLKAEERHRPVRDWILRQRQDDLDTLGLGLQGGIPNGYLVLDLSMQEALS
Assay readout: OD450 (OD)
Reply numerically in OD, unit not repeated.

Before answering, review these 3 worked examples.
[
  {
    "Binder": "Tab106 (YP218, hIgG1) (antibody, V domains shown, Control antibody; YP218 VH and VL recombined into human IgG1 CH and CL expression vectors; also called YP218 human IgG1 antibody) VH: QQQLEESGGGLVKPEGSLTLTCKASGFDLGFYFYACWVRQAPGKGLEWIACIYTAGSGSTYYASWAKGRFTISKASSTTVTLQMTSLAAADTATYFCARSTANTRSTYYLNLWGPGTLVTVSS VL: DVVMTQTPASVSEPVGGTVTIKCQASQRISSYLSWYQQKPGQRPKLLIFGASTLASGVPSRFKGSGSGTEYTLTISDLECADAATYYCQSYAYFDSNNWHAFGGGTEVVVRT",
    "Recorded number": 2.12
  },
  {
    "Binder": "S009-F7.48.1 (antibody, human IgG1, kappa, V domains shown, Human-murine chimeric antibody, human IgG1 heavy and kappa light constant regions) VH: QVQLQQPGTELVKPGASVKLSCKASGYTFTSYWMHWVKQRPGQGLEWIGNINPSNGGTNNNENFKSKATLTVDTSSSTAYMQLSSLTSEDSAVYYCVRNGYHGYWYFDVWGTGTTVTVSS VL: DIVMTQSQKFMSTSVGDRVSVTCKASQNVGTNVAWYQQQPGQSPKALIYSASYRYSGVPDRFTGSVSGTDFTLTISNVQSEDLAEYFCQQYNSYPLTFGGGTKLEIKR",
    "Recorded number": 2.69
  },
  {
    "Binder": "S009-F7.6.17 (antibody, human IgG1, kappa, V domains shown, Human-murine chimeric antibody, human IgG1 heavy and kappa light constant regions) VH: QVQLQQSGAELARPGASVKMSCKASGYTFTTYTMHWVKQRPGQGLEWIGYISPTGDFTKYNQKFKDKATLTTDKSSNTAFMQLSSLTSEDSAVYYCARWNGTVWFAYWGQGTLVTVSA VL: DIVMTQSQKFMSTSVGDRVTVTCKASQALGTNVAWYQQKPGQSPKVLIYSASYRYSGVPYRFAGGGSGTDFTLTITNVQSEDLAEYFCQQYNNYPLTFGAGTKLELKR",
    "Recorded number": 3.1
  }
]

Input: Any idea what OD450 was measured for S009-F7.44.20 (antibody, human IgG1, kappa, V domains shown, Human-murine chimeric antibody, human IgG1 heavy and kappa light constant regions) VH: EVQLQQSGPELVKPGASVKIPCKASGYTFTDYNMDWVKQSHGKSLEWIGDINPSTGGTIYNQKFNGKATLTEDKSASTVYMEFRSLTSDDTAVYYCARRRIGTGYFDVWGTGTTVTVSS VL: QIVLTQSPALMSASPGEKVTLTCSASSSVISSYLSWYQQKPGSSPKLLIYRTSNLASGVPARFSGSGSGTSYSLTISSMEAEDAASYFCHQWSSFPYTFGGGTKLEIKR ?
Output: 2.91

Input: Recorded OD450 for S009-F7.23.19 (antibody, human IgG1, kappa, V domains shown, Human-murine chimeric antibody, human IgG1 heavy and kappa light constant regions) VH: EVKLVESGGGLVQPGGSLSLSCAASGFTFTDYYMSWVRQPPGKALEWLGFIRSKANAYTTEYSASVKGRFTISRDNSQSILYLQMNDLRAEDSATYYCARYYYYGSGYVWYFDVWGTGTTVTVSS VL: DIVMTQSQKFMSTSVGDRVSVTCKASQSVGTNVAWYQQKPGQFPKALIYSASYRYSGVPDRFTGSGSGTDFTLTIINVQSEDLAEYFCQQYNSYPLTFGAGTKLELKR , please?
Output: 2.77
